MIC values, listed per item
test system: S. agalactiae GC 4564; assay: MIC, broth microdilution; settings: Streptococcus agalactiae, GC4564, read-out: MINIMAL INHIBITORY CONCENTRATION MIC, Water
measurement label: MIC

- CC(C)CC(=O)OCOC(=O)N(CC(=O)Nc1cc(N(C)C)c2c(c1O)C(=O)C1=C(O)[C@]3(O)C(=O)C(C(N)=O)=C(O)[C@@H](N(C)C)[C@@H]3C[C@@H]1C2)C(C)(C)C [Example 53]: 0.5 µg/mL
- COC(=O)N(CC(=O)Nc1cc(N(C)C)c2c(c1O)C(=O)C1=C(O)[C@]3(O)C(=O)C(C(N)=O)=C(O)[C@@H](N(C)C)[C@@H]3C[C@@H]1C2)C(C)(C)C [Example 60]: 4 µg/mL
- CCC(=O)OCOC(=O)N(CC(=O)Nc1cc(N(C)C)c2c(c1O)C(=O)C1=C(O)[C@]3(O)C(=O)C(C(N)=O)=C(O)[C@@H](N(C)C)[C@@H]3C[C@@H]1C2)C(C)(C)C [Example 49]: 0.25 µg/mL
- CN(C)c1cc(NC(=O)CN(C(=O)OCOC(=O)c2ccc(F)cc2)C(C)(C)C)c(O)c2c1C[C@H]1C[C@H]3[C@H](N(C)C)C(O)=C(C(N)=O)C(=O)[C@@]3(O)C(O)=C1C2=O [Example 52]: 0.5 µg/mL
- Cc1cc(C)cc(C(=O)OCOC(=O)N(CC(=O)Nc2cc(N(C)C)c3c(c2O)C(=O)C2=C(O)[C@]4(O)C(=O)C(C(N)=O)=C(O)[C@@H](N(C)C)[C@@H]4C[C@@H]2C3)C(C)(C)C)c1 [Example 51]: 2 µg/mL
